B1: ADAMTS4 (parent)
chain: SFRKFRYGYNNVVTIPAGATHILV

# Variants of: B1
# experiment.description: protein stability index of a GFP-peptide fusion (GPS, HEK-293T) (PSI 1-6); higher = more stable;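 note: lentivirally expressed fusions sorted by FACS into six bins by GFP to DsRed ratio, PSI derived from sequencing read proportions per bin multiplied by bin number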
# run.conditions: c terminus: a fixed tail appended
Would you mind telling me the reported protein stability index of each entry?
One number for each entry.

| ordered.residues | protein stability index |
| --- | --- |
| SFRKFRYGYNHVVTIPAGATHILV [N11H] | 3.34 |

Fill in protein stability index for each of the 5 variants listed.
1. SFRKFRYGYNNVVTIPAGAYHILV [T20Y]
2. SFRKFRYGQNNVVTIPAGATHILV [Y9Q]
3. SFRKFRYGYNNDVTIPAGATHILV [V12D]
4. SFRKFRYGYNNVVTIPAGATHIVV [L23V]
5. SFRKFRYGYNNVVTIFAGATHILV [P16F]

1: 1.69; 2: 2.01; 3: 3.98; 4: 2; 5: 2.57

Source of measurements: the supplement of paper PMC10567573
